- Tested on: HSkMC
- assay.notes: cytotoxicity call (relative viability < 0.9)
- experimental.context: 10 µM
The campaign covered roughly 39,000 compounds. About 1,500 (3.8%) were called active. The entries come from a sample that favours actives as a whole.
property.name: cytotoxicity call

- O=C1O[C@H](c2ccccc2)[C@H](c2ccccc2)N2[C@H]1[C@@H](C(=O)NC[C@@H](O)c1ccccc1)[C@]1(C(=O)Nc3ccc(C#CC4=CCCCC4)cc31)[C@H]2c1ccccc1OCCO: active
- C=CCNC(=O)[C@@H]1[C@H]2C(=O)O[C@H](c3ccccc3)[C@H](c3ccccc3)N2[C@H](c2ccc(OCCO)cc2)[C@@]12C(=O)Nc1ccc(C#CC3=CCCCC3)cc12: inactive
- C=CCNC(=O)[C@@H]1[C@H]2C(=O)O[C@H](c3ccccc3)[C@H](c3ccccc3)N2[C@H](c2ccccc2OCCO)[C@@]12C(=O)Nc1ccc(C#Cc3ccc(OC)cc3)cc12: inactive
- C[C@@H]1O[C@@H](O[C@H]2[C@H](O[C@H]3[C@H](O)[C@@H](O[C@@H]4O[C@H](CO)[C@@H](O)[C@H](O)[C@H]4O)[C@H](O[C@H]4CC[C@]5(C)[C@H]6CC[C@]78OC[C@@]9(CCC(C)(C)C[C@@H]97)[C@H](O)C[C@@]8(C)[C@]6(C)CC[C@H]5C4(C)C)O[C@@H]3C(=O)O)O[C@H](CO)[C@H](O)[C@@H]2O)[C@H](O)[C@H](O)[C@H]1O: active

###

- Tested on: HSkMC
- assay.notes: cytotoxicity call (relative viability < 0.9)
- experimental.context: 10 µM
The campaign covered roughly 39,000 compounds. About 1,500 (3.8%) were called active. The entries come from a sample that favours actives as a whole.
Possible outcomes: Y = active, N = inactive

- Cc1noc(C)c1NC(=O)Nc1cccc2c1O[C@H](CN(C)Cc1ccc(C(F)(F)F)cc1)[C@H](C)CN([C@H](C)CO)C2=O: N
- CN(C)C(=O)C[C@H]1CC[C@@H]2[C@@H](COc3ccc(NS(=O)(=O)c4cccc(F)c4)cc3C(=O)N2C)O1: N
- COc1ccc(S(=O)(=O)N(C)C[C@H]2OCCCC[C@H](C)Oc3ccc(NC(=O)C4CCCCC4)cc3C(=O)N([C@H](C)CO)C[C@H]2C)cc1: N
- C[C@@H]1CCCCO[C@H](CN(C)C(=O)Nc2ccc(C(F)(F)F)cc2)[C@H](C)CN([C@H](C)CO)C(=O)c2cc(N(C)C)ccc2O1: N
- COc1ccc(S(=O)(=O)Nc2ccc3c(c2)C(=O)N([C@H](C)CO)C[C@H](C)[C@H](CN(C)Cc2ccccc2)OCCCC[C@H](C)O3)cc1: N
- CCN1C(C)(C)CC(Oc2ccc(C(=O)Nc3ccc(NC(=O)Nc4cc(C(C)(C)C)on4)cc3)nc2)CC1(C)C: Y
- C[C@@H]1CCCCO[C@@H](CN(C)S(=O)(=O)c2cn(C)cn2)[C@@H](C)CN([C@@H](C)CO)C(=O)c2cc(NC(=O)Nc3ccc(C(F)(F)F)cc3)ccc2O1: N

###

- Test system: HSkMC (human skeletal muscle cells)
- assay.notes: cytotoxicity call (relative viability < 0.9)
- experimental.context: 10 µM
The whole screen tested about 39,000 compounds, of which about 1,500 (3.8%) were called active. Many of the other results were omitted from the sample, so actives are more common in it than they were.
Possible outcomes: yes (1) for active, no (0) for inactive

- COc1ccc(S(=O)(=O)N(C)C[C@H]2Oc3ncc(C#CC4(O)CCCC4)cc3C(=O)N([C@@H](C)CO)C[C@@H]2C)cc1: no (0)
- COc1cccc2c1C(=O)c1c(O)c3c(c(O)c1C2=O)CC(O)(C(=O)CO)CC3OC1CC(N)C(O)C(C)O1 (configuration not stated): yes (1)
- C[C@@H]1CN([C@H](C)CO)C(=O)c2cccc(NC(=O)Nc3ccc(C(F)(F)F)cc3)c2O[C@@H]1CN(C)Cc1ccc(Cl)c(Cl)c1: yes (1)
- COc1cccc2c1C(=O)c1c(O)c3c(c(O)c1C2=O)C[C@@](O)(C(=O)CO)C[C@@H]3O[C@H]1C[C@H](N)[C@H](O)[C@H](C)O1: yes (1)
- CCCNC(=O)C[C@H]1CC[C@H]2[C@@H](COc3ccc(NS(=O)(=O)c4ccccc4C)cc3C(=O)N2C)O1: no (0)
- COc1ccc(S(=O)(=O)Nc2cccc3c2O[C@H](CN(C)S(=O)(=O)c2ccc(C)cc2)[C@@H](C)CN([C@H](C)CO)C3=O)cc1: no (0)
- C[C@H]1CN([C@@H](C)CO)C(=O)c2cccc(NC(=O)Nc3ccc(C(F)(F)F)cc3)c2O[C@@H]1CN(C)Cc1ccc(Cl)c(Cl)c1: yes (1)
